Record form. Attribute: CC50 at 120 h. Fill in for each entry.
assay: Cytotoxicity against human MT4 cells after 5 days by MTT assay; type: cell-based

Input line: Return CC50 at 120 h (reported value) for this compound: `CCOC(=O)/C(=C\c1ccc(-c2cccc([N+](=O)[O-])c2)o1)C(=O)c1ccccc1`
Output line: > 64 µM

Input line: Return CC50 at 120 h (reported value) for this compound: `CCOC(=O)[C@H](Cc1ccc(/N=C/c2cc(Br)ccc2O)cc1)N1C(=O)c2ccccc2C1=O`
Output line: > 48 µM

Input line: Return CC50 at 120 h (reported value) for this compound: `COc1nc(N/N=C/c2ccc(-c3ccc(Cl)c([N+](=O)[O-])c3)o2)nc(N2CCOCC2)n1`
Output line: > 54 µM

Input line: Return CC50 at 120 h (reported value) for this compound: `COc1ccc(/C=N/c2nc3ccccc3n2Cc2ccc(Cl)cc2)cc1OC`
Output line: > 62 µM

Input line: Return CC50 at 120 h (reported value) for this compound: `C=CCn1c(SCc2ccc(C(=O)NCCO)cc2)nc2ccccc2c1=O`
Output line: > 63 µM

Input line: Return CC50 at 120 h (reported value) for this compound: `C[C@@H]1CN(C(=O)c2ccccc2)CCN1C(=O)C(=O)c1cc2ccccc2[nH]1`
Output line: > 2.66 µM

// provenance: ChEMBL document CHEMBL1154175
